Tested on: U2OS (human osteosarcoma)
Assay: MTT cytotoxicity assay, U2OS
Format: cell-based
Conditions: read-out: IC50 U2OS, 72 h continuous treatment
measure: IC50 (µM)

{"compound": "N.N.[Cl][Pt][Cl] [cisplatin, cis-diamminedichloroplatinum(II)]", "measure": "IC50", "readout units": "µM", "result value": 5}

The measured values listed here are drawn from paper PMC3375352.
